Sourced from patent US5672715A

test system: Velvetleaf; assay: pre-emergence herbicide test; assay type: in vivo; details: Abutilon theophrasti, pre-emergence, 0.25 lb/A; read-out: % plant inhibition
# inhibition at 280.212 g/ha values compiled below
Answer format: numeric, % implied, no suffix.

Known inhibition at 280.212 g/ha results, listed for orientation:
molecule: Cc1c(-c2cc(C(=O)OCc3ccco3)c(Cl)cc2F)nn(C)c1C(F)(F)F
reading-unit: %
inhibition at 280.212 g/ha: 90

molecule: CCC(C)OC(=O)c1cc(-c2nn(C)c(C(F)(F)F)c2C)c(F)cc1Cl (centres unmarked)
reading-unit: %
inhibition at 280.212 g/ha: 100

molecule: COc1cc(-c2nn(C)c(C(F)(F)F)c2C)c(F)cc1Cl
reading-unit: %
inhibition at 280.212 g/ha: 100

molecule: CCC(CC)COC(=O)c1cc(-c2nn(C)c(C(F)(F)F)c2C)c(F)cc1Cl
reading-unit: %
inhibition at 280.212 g/ha: 80

molecule: CCCOC(=O)c1cc(-c2nn(C)c(C(F)(F)F)c2C)c(F)cc1Cl
reading-unit: %
inhibition at 280.212 g/ha: 90

molecule: CCOC(=O)C=C(COC(=O)c1cc(-c2nn(C)c(C(F)(F)F)c2C)c(F)cc1Cl)OC
reading-unit: %
inhibition at 280.212 g/ha: 60

molecule: CCCCCCCCCCCCOC(=O)c1cc(-c2nn(C)c(C(F)(F)F)c2C)c(F)cc1Cl
reading-unit: %
inhibition at 280.212 g/ha: 0

molecule: CCOC(=O)c1cc(-c2nn(C)c(C(F)(F)F)c2C)c(F)cc1Cl
reading-unit: %
inhibition at 280.212 g/ha: 100

molecule: Cc1c(-c2cc(CS)c(Cl)cc2F)nn(C)c1C(F)(F)F
reading-unit: %
inhibition at 280.212 g/ha: 90

molecule: CC(C)OC(=O)c1cc(-c2nn(C)c(C(F)(F)F)c2C(F)F)c(F)cc1Cl
reading-unit: %
inhibition at 280.212 g/ha: 100

Challenge: Provide measured inhibition at 280.212 g/ha value, entry: Cc1c(-c2cc(CS(C)(=O)=O)c(Cl)cc2F)nn(C)c1C(F)(F)F
Response given: 45

Challenge: Provide measured inhibition at 280.212 g/ha value, entry: Cn1nc(-c2cc(C(=O)O)c(Cl)cc2F)c(C=O)c1C(F)(F)F
Response given: 25

Challenge: Provide measured inhibition at 280.212 g/ha value, entry: C=CCOC(=O)c1cc(-c2nn(C)c(C(F)(F)F)c2C)c(F)cc1Cl
Response given: 100

Challenge: Provide measured inhibition at 280.212 g/ha value, entry: CC(C)OC(=O)c1cc(-c2nn(C)c(C(F)(F)F)c2CF)c(F)cc1Cl
Response given: 97

====

system: Morning Glory; assay: pre-emergence herbicide test; assay type: in vivo; conditions: Ipomoea, pre-emergence, 0.1785 lb/A; read-out: % plant inhibition
Given measured inhibition at 200.072 g/ha, output 1.0 if it is greater than or equal to 60% and 0.0 if not.

record-smiles: COc1cc(-c2nn(C)c(C(F)(F)F)c2C)c(F)cc1Cl
experimental-system: Morning Glory
cat: 1.0

record-smiles: C#CCOc1cc(-c2nn(C)c(C(F)(F)F)c2C)c(F)cc1Cl
experimental-system: Morning Glory
cat: 1.0

record-smiles: Cn1nc(-c2cc(F)ccc2F)c(C=O)c1C(F)(F)F
experimental-system: Morning Glory
cat: 0.0

record-smiles: Cc1c(-c2cc(O)c(Cl)cc2F)nn(C)c1C(F)(F)F
experimental-system: Morning Glory
cat: 0.0

Next:
Challenge: Has Cc1c(-c2cc(OCC(=O)OC(C)C)c(Cl)cc2F)nn(C)c1C(F)(F)F a recorded inhibition at 200.072 g/ha greater than or equal to 60%?
Response given: 1.0
